B1: TPTE2 peptide 94-109 (Phosphatidylinositol 3,4,5-trisphosphate 3-phosphatase TPTE2), 16-mer library wild type / TLN1 PTB (TLN1 Phosphotyrosine-binding (PTB) domain, residues 309-401) (parent)
chain 1: DLIFTDSKLYIPLEYR
chain 2: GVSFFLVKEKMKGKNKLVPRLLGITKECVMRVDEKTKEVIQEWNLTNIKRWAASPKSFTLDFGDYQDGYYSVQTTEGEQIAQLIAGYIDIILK

- Variants of: B1
- Test Summary: proteomic peptide phage display deep mutational scan (ProP-PD DMS): M13 P8 16-mer library selected against immobilised GST-tagged bait for four days (rounds), NGS of the eluted pools per day and pseudo-replica
- Settings: with TLN1 PTB (TLN1 Phosphotyrosine-binding (PTB) domain, residues 309-401); bait immobilised on MaxiSorp plates (10 µg), library pre-cleared on GST, 2 h binding at 4 °C, five washes; one round per day, days 1-4; value from days 2 and 3; keep out of graded; scale: average fractional NGS count over selection days 2 and 3
screen value: recorded values

>  <Variant Designation>
chain 1 D1E

>  <screen value>
0.000184

$$$$
>  <Variant Designation>
chain 1 L13M

>  <screen value>
0.00103

$$$$
>  <Variant Designation>
chain 1 L2H

>  <screen value>
0.000178

$$$$
>  <Variant Designation>
chain 1 E14A

>  <screen value>
0.00053

$$$$
>  <Variant Designation>
chain 1 Y15P

>  <screen value>
0.00117

$$$$
>  <Variant Designation>
chain 1 T5H

>  <screen value>
5.61e-05

$$$$
>  <Variant Designation>
chain 1 L2E

>  <screen value>
0.000516

$$$$
>  <Variant Designation>
chain 1 L2S

>  <screen value>
3.05e-05

$$$$
>  <Variant Designation>
chain 1 Y15A

>  <screen value>
0.00819

$$$$
>  <Variant Designation>
chain 1 D1W

>  <screen value>
4.41e-05

$$$$
>  <Variant Designation>
chain 1 D1P

>  <screen value>
0.00123

$$$$

All figures here come from paper PMC12102759.
